Target: T1, human G-CSF receptor (human, UniProt Q99062 25-836)
T1 sequence (looked up): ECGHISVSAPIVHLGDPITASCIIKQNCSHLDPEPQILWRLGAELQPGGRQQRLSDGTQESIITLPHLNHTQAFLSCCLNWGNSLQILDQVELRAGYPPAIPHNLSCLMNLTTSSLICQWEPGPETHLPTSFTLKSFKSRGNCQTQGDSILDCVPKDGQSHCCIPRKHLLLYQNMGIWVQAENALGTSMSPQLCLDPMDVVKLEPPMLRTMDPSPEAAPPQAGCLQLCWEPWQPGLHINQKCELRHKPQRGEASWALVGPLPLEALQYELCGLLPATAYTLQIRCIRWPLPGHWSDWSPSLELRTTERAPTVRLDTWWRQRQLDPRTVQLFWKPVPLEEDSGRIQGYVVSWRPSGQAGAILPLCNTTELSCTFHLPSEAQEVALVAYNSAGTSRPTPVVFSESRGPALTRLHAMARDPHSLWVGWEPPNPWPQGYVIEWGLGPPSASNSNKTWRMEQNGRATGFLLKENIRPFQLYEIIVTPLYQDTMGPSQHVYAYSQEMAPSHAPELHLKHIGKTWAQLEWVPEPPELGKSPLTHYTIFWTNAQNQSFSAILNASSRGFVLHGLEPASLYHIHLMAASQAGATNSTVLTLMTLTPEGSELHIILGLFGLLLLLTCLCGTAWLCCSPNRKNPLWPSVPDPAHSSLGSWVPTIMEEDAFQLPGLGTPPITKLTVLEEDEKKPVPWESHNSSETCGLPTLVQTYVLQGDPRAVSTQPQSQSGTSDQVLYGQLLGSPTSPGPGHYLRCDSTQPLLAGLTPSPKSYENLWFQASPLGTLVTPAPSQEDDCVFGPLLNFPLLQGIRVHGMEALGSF
Experiment: cell-based or functional assay
property.measured: EC50 (% of hG-CSF) conjugated to SPA-PEG 5000

Supply EC50 (% of hG-CSF) conjugated to SPA-PEG 5000 value. Item: G-CSF variant K16/40R conjugated to SPA-PEG 5000 (ligand, SPA-PEG 5000 conjugated to the available PEGylation sites) TPLGPASSLPQSFLLRCLEQVRKIQGDGAALQEKLCATYRLCHPEELVLLGHSLGIPWAPLSSCPSQALQLAGCLSQLHSGLFLYQGLLQALEGISPELGPTLDTLQLDVADFATTIWQQMEELGMAPALQPTQGAMPAFASAFQRRAGGVLVASHLQSFLEVSYRVLRHLAQP 5 % of hG-CSF

Write down EC50 (% of hG-CSF) conjugated to SPA-PEG 5000 measured for item G-CSF variant K16/23/34/40R conjugated to SPA-PEG 5000 (ligand, SPA-PEG 5000 conjugated to the available PEGylation sites) TPLGPASSLPQSFLLRCLEQVRRIQGDGAALQERLCATYRLCHPEELVLLGHSLGIPWAPLSSCPSQALQLAGCLSQLHSGLFLYQGLLQALEGISPELGPTLDTLQLDVADFATTIWQQMEELGMAPALQPTQGAMPAFASAFQRRAGGVLVASHLQSFLEVSYRVLRHLAQP 15 % of hG-CSF

Look up and report measured EC50 (% of hG-CSF) conjugated to SPA-PEG 5000 for this entry: G-CSF variant K16/34/40R T105K Q120K T133K conjugated to SPA-PEG 5000 (ligand, SPA-PEG 5000 conjugated to the available PEGylation sites) TPLGPASSLPQSFLLRCLEQVRKIQGDGAALQERLCATYRLCHPEELVLLGHSLGIPWAPLSSCPSQALQLAGCLSQLHSGLFLYQGLLQALEGISPELGPTLDKLQLDVADFATTIWQKMEELGMAPALQPKQGAMPAFASAFQRRAGGVLVASHLQSFLEVSYRVLRHLAQP 1 % of hG-CSF

Tell me EC50 (% of hG-CSF) conjugated to SPA-PEG 5000 reported for G-CSF variant K16/23Q conjugated to SPA-PEG 5000 (ligand, SPA-PEG 5000 conjugated to the available PEGylation sites) TPLGPASSLPQSFLLQCLEQVRQIQGDGAALQEKLCATYKLCHPEELVLLGHSLGIPWAPLSSCPSQALQLAGCLSQLHSGLFLYQGLLQALEGISPELGPTLDTLQLDVADFATTIWQQMEELGMAPALQPTQGAMPAFASAFQRRAGGVLVASHLQSFLEVSYRVLRHLAQP 1 % of hG-CSF

State its EC50 (% of hG-CSF) conjugated to SPA-PEG 5000 for this binder: G-CSF variant 34A conjugated to SPA-PEG 5000 (ligand, SPA-PEG 5000 conjugated to the available PEGylation sites) TPLGPASSLPQSFLLKCLEQVRKIQGDGAALQEALCATYKLCHPEELVLLGHSLGIPWAPLSSCPSQALQLAGCLSQLHSGLFLYQGLLQALEGISPELGPTLDTLQLDVADFATTIWQQMEELGMAPALQPTQGAMPAFASAFQRRAGGVLVASHLQSFLEVSYRVLRHLAQP 1 % of hG-CSF

For G-CSF variant K16/34/40R S80K conjugated to SPA-PEG 5000 (ligand, SPA-PEG 5000 conjugated to the available PEGylation sites) TPLGPASSLPQSFLLRCLEQVRKIQGDGAALQERLCATYRLCHPEELVLLGHSLGIPWAPLSSCPSQALQLAGCLSQLHKGLFLYQGLLQALEGISPELGPTLDTLQLDVADFATTIWQQMEELGMAPALQPTQGAMPAFASAFQRRAGGVLVASHLQSFLEVSYRVLRHLAQP , write its EC50 (% of hG-CSF) conjugated to SPA-PEG 5000. 0.2 % of hG-CSF
